Assignment: determine reported efflux ratio at 2 h, 10 μM for the given molecules.
testDescription: Caco-2 cell permeability
Format: in vitro ADME
testConditions: human, Caco-2; Papp (BA) / Papp (AB)
Numbers only.

CC(C)NCC(O)COc1cccc2ccccc12 (centres unmarked) [Propranolol, reference compound]
1.04

# evaluate next
Exam item: Form field: reported efflux ratio at 2 h, 10 μM of O=C(O)c1cc2ccccc2n1Cc1cccc2ccccc12
Marked response: 1.13

---

testDescription: in vitro
testConditions: simulated gi fluid, Stability in SGF, % Remaining at 2 h
endpoint: remaining at 2 h, 10 μM (%)
One number for each entry, in %.

Exam item: Form field: reported remaining at 2 h, 10 μM of O=C(O)c1cc2ccccc2n1Cc1cccc2ccccc12
Marked response: 91.9
